assay-explanation: Inhibition of Escherichia coli NAD+dependent DNA ligase
Below is a list of entries, each paired with its recorded pIC50 value.
The meaning of pIC50 here: minus log10 of the concentration in molar units.

- molecule: "Nc1nc(OC2CCCC2)nc2c1c(=O)ccn2CCO"
  pIC50: 6.29
- molecule: "C[C@H]1CC[C@H](Oc2nc(N)c3c(=O)ccn([C@H]4CC(C(=O)O)C[C@@H]4O)c3n2)CC1 (some centres not stated)"
  pIC50: 7.29
- molecule: "Nc1nc(OCCF)nc2c1c(=O)ccn2CCO"
  pIC50: 5.71

## Task Indicate the recorded pIC50 value for this molecule: C[C@H]1CCCC[C@H]1Oc1nc(N)c2c(=O)ccn([C@@H]3CCC[C@H]3O)c2n1
## Result 7.40

## Task Indicate the recorded pIC50 value for this molecule: C[C@H]1CC[C@H](Oc2nc(N)c3c(=O)ccn(CCO)c3n2)CC1
## Result 6.38

###

assay-explanation: Inhibition of Escherichia coli NAD+dependent DNA ligase
pIC50: −log10 of the molar value.
Kind request: treat 7 as inclusive, so pIC50 at 7 or higher is TRUE, anything lower is FALSE.

Before answering, review these 3 worked examples.
- molecule: "Nc1nc(OC2CCC(C(F)(F)F)CC2)nc2c1c(=O)ccn2[C@H]1CCC[C@@H]1O (relative stereo)"
  class: "FALSE"
- molecule: "C[C@H]1CCCC[C@H]1Oc1nc(N)c2c(=O)ccn(CC#N)c2n1 (relative stereo)"
  class: "TRUE"
- molecule: "Nc1nc(SC2CCCC2)nc2c1c(=O)ccn2CCO"
  class: "FALSE"

## Task API: above_or_equal(metric=pIC50, cutoff=7) for item C[C@H]1CCCC[C@H]1Oc1nc(N)c2c(=O)ccn(Cc3ccc(C(=O)O)cc3)c2n1 (relative stereo)
## Result TRUE

## Task API: above_or_equal(metric=pIC50, cutoff=7) for item CC1CCC(Oc2nc(N)c3c(=O)ccn([C@H]4CCC[C@@H]4O)c3n2)C(C)C1 (relative stereo)
## Result FALSE

## Task API: above_or_equal(metric=pIC50, cutoff=7) for item C[C@H]1CCCC[C@H]1Oc1nc(N)c2c(=O)ccn(CCC#N)c2n1 (relative stereo)
## Result TRUE

## Task API: above_or_equal(metric=pIC50, cutoff=7) for item C[C@H]1CC[C@H](Oc2nc(N)c3c(=O)ccn([C@@H]4CCC[C@H]4O)c3n2)CC1
## Result FALSE

## Task API: above_or_equal(metric=pIC50, cutoff=7) for item Nc1nc(OC(CF)CF)nc2c1c(=O)ccn2CCO
## Result FALSE

## Task API: above_or_equal(metric=pIC50, cutoff=7) for item C[C@@H]1CCCC[C@@H]1Oc1nc(N)c2c(=O)ccn(CCO)c2n1 (relative stereo)
## Result TRUE

## Task API: above_or_equal(metric=pIC50, cutoff=7) for item CC(C)Oc1nc(N)c2c(=O)ccn(CCO)c2n1
## Result FALSE

## Task API: above_or_equal(metric=pIC50, cutoff=7) for item Nc1nc(OC2CCC(Cl)CC2)nc2c1c(=O)ccn2[C@H]1CCC[C@@H]1O (relative stereo)
## Result TRUE

## Task API: above_or_equal(metric=pIC50, cutoff=7) for item C[C@H]1CC[C@H](Oc2nc(N)c3c(=O)ccn([C@H]4CC(C(N)=O)C[C@@H]4O)c3n2)CC1 (some centres not stated)
## Result TRUE

Where do the numbers come from? From ChEMBL document CHEMBL2029206.
